test system: SEM cells; test: cell viability relative to DMSO control; higher = less cytotoxic; settings: HPLM + 10% dialyzed FBS; 48 h; 0.00702 µM

compound | units | cell viability
COc1cc2nc(N3CCN(C(=O)C4COc5ccccc5O4)CC3)nc(N)c2cc1OC (stereo not given) | % | 115
CCOC(=O)c1c(C)n(C)c2ccc(O)cc12 | % | 97.6
O=C1NC(=O)/C(=C/c2ccc3nccnc3c2)S1 | % | 128
CC/C=C\C[C@H]1C(=O)CC[C@@H]1CC(=O)OC | % | 130
Nc1ccc(C(=O)Nc2cccc(-c3nc(N4CCOCC4)c4oc5ncccc5c4n3)c2)cn1 | % | 130

###

system: NOMO1; assay: cell viability relative to DMSO control; higher = less cytotoxic; conditions: HPLM + 10% dialyzed FBS; 48 h; 0.0211 µM

compound-smiles | units | cell viability
Clc2cccc(Cl)c2\N=C1/NCCN1 | % | 105
Oc1cc(-c2nc(-c3ccccc3)[nH]c2-c2ccncc2)ccc1Cl | % | 112
CCN(CC)CCNC(=O)c1c(C)[nH]c(/C=C2\C(=O)Nc3ccc(F)cc32)c1C | % | 124

###

Measured cell viability values are reported for all entries that follow.
test system: NOMO1; experiment: cell viability relative to DMSO control; higher = less cytotoxic; details: RPMI 5 mM glucose + 10% dialyzed FBS; 48 h; 0.000781 µM
recorded-endpoint: cell viability

molecule | assay-target | recorded-endpoint | data-value
N[S+](=O)([O-])c1ccc(Nc2nc(OCC3CCCCC3)c3[nH]cnc3n2)cc1 | NOMO1 | cell viability | 119%
CN1CCc2c(c3ccccc3n2Cc2ccc(C(=O)NO)cc2)C1 | NOMO1 | cell viability | 71.5%
COc1ccc(F)c(F)c1C(=O)c1cnc(NC2CCN([S+](C)(=O)[O-])CC2)nc1N | NOMO1 | cell viability | 105%
O=C(/C=C/c1ccc(/C=C/C(=O)Nc2ccc(C3=NCCN3)cc2)cc1)Nc1ccc(C2=NCCN2)cc1 | NOMO1 | cell viability | 88.2%
CC(C)C1CCC(C(=O)N[C@H](Cc2ccccc2)C(=O)O)CC1 (some centres undefined) | NOMO1 | cell viability | 92.2%
CCNC(=O)Nc1ccc(Oc2ncnc(N)c2/C=N/OC)cc1Cl | NOMO1 | cell viability | 90.2%
O=C1NC(=O)/C(=C/c2ccc3nccnc3c2)S1 | NOMO1 | cell viability | 118%
O=C(O)c1cc(O)c2c(c1)C(=O)c1cccc(O)c1C2=O | NOMO1 | cell viability | 110%
CC(C)(N)c1ccc(-c2nc3ccccc3nc2-c2ccccc2)cc1 | NOMO1 | cell viability | 102%

###

test system: P12-Ichikawa; assay: cell viability relative to DMSO control; higher = less cytotoxic; conditions: RPMI 5 mM glucose + 10% dialyzed FBS; 48 h; 0.00702 µM
Measured cell viability values are reported for all entries that follow.
recorded-endpoint: cell viability (%)

compound | data-value
CN(CCOc1ccc(CC2SC(=O)NC2=O)cc1)c1ccccn1 (stereo unspecified) | 127
COc1ccc(CCC(=O)c2c(O)cc(O[C@@H]3O[C@H](CO)[C@@H](O)[C@H](O)[C@H]3O[C@@H]3O[C@@H](C)[C@H](O)[C@@H](O)[C@H]3O)cc2O)cc1O | 118
CC(=O)N(C)C1(c2ccccc2)CCN(CCC[C@]2(c3ccc(Cl)c(Cl)c3)CCCN(C(=O)c3ccccc3)C2)CC1 | 110
CNC[C@H](O)[C@@H](O)[C@H](O)[C@H](O)CO | 124
c1cc(-c2cnn3cc(-c4ccc(OCCN5CCCCC5)cc4)cnc23)ccn1 | 84.1
C[C@]1(O)CC(C1)C2=NC(=C3[N]2C=CN=C3N)C4=CC5=C(C=C4)C=CC(=N5)C6=CC=CC=C6 (stereo unspecified) | 94.5
CC1(C)SCCN([S+](=O)([O-])c2ccc(OCC#CCO)cc2)[C@H]1C(=O)NO | 101
CC/C=C\C[C@H]1C(=O)CC[C@@H]1CC(=O)OC | 124
Nc1nc(F)nc2c1ncn2[C@@H]1O[C@H](COP(=O)(O)O)[C@@H](O)[C@@H]1O | 123
CCc1ccc(OCc2ccccc2C(=O)Nc2ccc3nc(C)cc(N)c3c2)cc1 | 108
C[C@H](CCC(=O)O)[C@H]1CC[C@H]2[C@@H]3[C@H](O)C[C@@H]4C[C@H](O)CC[C@]4(C)[C@H]3CC[C@]12C | 93.3
COc1cc(C(=O)NC2CCN(C)CC2)ccc1Nc1ncc2c(n1)N(C1CCCC1)CCC(=O)N2C(C)C | 111
CNC(=O)c1ccc2c(c1)NC(=O)/C2=C(\Nc1cccc(CN(C)C)c1)c1ccccc1 | 108
COc1c(Cl)cc2c([nH]c3cnccc32)c1NC(=O)c1cccnc1C | 104
O=C(O)c1ccc(O)c2ncc(N3CCOCC3)cc12 | 104
CCCN[C@H]1CCc2nc(N)sc2C1 | 90.4
